molecular target: TIP48/TIP49 complex (Homo sapiens, UniProt Q9Y230+Q9Y265); assay: ATPase assay of TIP48/TIP49 complex (ADP-Glo); conditions: concentration at which the ATPase activity was inhibited by 50%
Sequence (Q9Y230 whole entry): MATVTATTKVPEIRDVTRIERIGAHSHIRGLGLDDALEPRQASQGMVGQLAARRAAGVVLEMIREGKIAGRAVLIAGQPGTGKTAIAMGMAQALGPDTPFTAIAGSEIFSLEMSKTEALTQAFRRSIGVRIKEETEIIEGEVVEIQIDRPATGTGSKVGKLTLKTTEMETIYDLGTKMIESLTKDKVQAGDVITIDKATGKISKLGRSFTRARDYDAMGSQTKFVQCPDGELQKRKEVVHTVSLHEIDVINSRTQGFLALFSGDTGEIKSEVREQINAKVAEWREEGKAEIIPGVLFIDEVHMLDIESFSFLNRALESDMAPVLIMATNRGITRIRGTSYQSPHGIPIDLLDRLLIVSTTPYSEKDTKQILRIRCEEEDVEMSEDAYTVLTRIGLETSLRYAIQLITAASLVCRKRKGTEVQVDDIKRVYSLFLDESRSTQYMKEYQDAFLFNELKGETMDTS
Sequence (Q9Y265 whole entry): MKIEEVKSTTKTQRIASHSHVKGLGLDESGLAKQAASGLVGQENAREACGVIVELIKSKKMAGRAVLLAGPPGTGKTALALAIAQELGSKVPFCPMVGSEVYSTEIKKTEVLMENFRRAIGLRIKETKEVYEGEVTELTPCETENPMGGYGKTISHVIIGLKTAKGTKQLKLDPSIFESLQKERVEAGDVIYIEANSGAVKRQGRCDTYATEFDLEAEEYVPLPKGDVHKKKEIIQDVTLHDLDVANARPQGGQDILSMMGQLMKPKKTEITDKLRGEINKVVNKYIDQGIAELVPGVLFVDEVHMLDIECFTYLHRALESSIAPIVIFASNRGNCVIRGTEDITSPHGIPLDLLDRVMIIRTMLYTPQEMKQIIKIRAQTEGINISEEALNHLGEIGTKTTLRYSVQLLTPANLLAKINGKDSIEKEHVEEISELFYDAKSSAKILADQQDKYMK
result_type: IC50 (nM)

Example entries and their recorded answers appear below.
• CCOc1ccc(Cl)cc1C(=O)NCC(CF)(CF)CC(=O)Nc1c(CCN(C)C)n(C)n(-c2ccccc2)c1=O = 150
• COc1ccc(Cl)cc1C(=O)NCC(C)(C)CC(=O)Nc1c(CCN(C)C)n(C)n(-c2ccccc2)c1=O = 110

a = COc1ccc(Cl)cc1C(=O)NCC(C)(C)CC(=O)Nc1c(CCN)n(C)n(-c2ccccc2)c1=O
b = CCOc1ccc(Cl)cc1C(=O)NCC(C)(C)CC(=O)Nc1c(CC(C)(C)NC)n(C)n(-c2ccccc2)c1=O
Request: Which record would sort first by descending IC50, a or b ? Write down the label attached to your selection.
Result: a

* * *

system: human lymphoma cell line RAMOS cells; test: Cell growth inhibition test using RAMOS cell, MTT assay; format: cell-based; settings: 50% growth inhibition concentration
result_type: GI50 (nM)

Below: 6 compounds and their reported GI50.
• CCOc1ncc(Cl)cc1C(=O)NCC(C)(C)CC(=O)Nc1c(C)n(CCN(C)C)n(-c2ccccc2)c1=O = 230
• CCOc1ncc(Cl)cc1C(=O)NCC(C)(C)CC(=O)Nc1c(CCN(C)C)n(C)n(-c2ccccc2)c1=O = 110
• Cc1c(NC(=O)CC(C)(C)CNC(=O)c2cc(Cl)ccc2OC2CC2)c(=O)n(-c2ccccc2)n1C = 120
• COc1ccc(Cl)cc1NC(=O)CC1(CC(=O)Nc2c(C)n(C)n(-c3ccccc3)c2=O)OCCO1 = 9600
• CCOc1ccc(Cl)cc1C(=O)NCC(C)(C)CC(=O)Nc1c(COc2cccnc2)n(C)n(-c2ccccc2)c1=O = 120
• C=Cn1c(C)c(NC(=O)CC(C)(C)CC(=O)Nc2cc(Cl)c(F)cc2OC)c(=O)n1-c1ccccc1 = 1200

P = Cc1c(NC(=O)CC(C)(C)CNC(=O)c2cc(Cl)ccc2OC2COC2)c(=O)n(-c2ccccc2)n1C
Q = CCOc1cc(F)c(Cl)cc1NC(=O)CC(C)(C)CC(=O)Nc1c(COC)n(C)n(-c2ccccc2)c1=O
Request: Which shows the larger GI50 value: P or Q ? Give the label of your selection.
Result: P

* * *

Molecular target: TIP48/TIP49 complex (Homo sapiens, UniProt Q9Y230+Q9Y265)
Experiment: ATPase assay of TIP48/TIP49 complex (ADP-Glo)
Conditions: concentration at which the ATPase activity was inhibited by 50%
Method: The ATPase activity of the TIP48/TIP49 complex can be measured by use of an ATPase assay described below in Test Examples 1 and 2. […] Alternatively, the ATPase activity of the TIP48/TIP49 complex can be measured by a method described in, for example, J. Mol. Biol. 366, 172-179 (2007). […] The ATPase inhibitory activity was calculated according to the expression given below. […]
result_type: IC50 (nM)

Study these solved cases before continuing.
- CCOc1ccc(Cl)cc1C(=O)NCC(C)(C)C(F)C(=O)Nc1c(CCN(C)C)n(C)n(-c2ccccc2)c1=O (centres unmarked) [Example 91]: 110
- CCOc1ncc(Cl)cc1C(=O)NCC(C)(C)CC(=O)Nc1c(C(C)CN(C)C)n(C)n(-c2ccccc2)c1=O (centres unmarked) [Example 71]: 90
- CCOc1cc(F)c(Cl)cc1C(=O)NCC(C)(C)CC(=O)Nc1c(CCN(C)C)n(C)n(-c2ccccc2)c1=O [Example 12]: 62
- CCOc1cc(F)c(Cl)cc1C(=O)NCC(C)(C)CC(=O)Nc1c([C@@H](C)OC)n(C)n(-c2ccccc2)c1=O [Example 124]: 38
- CCOc1ccc(Cl)cc1C(=O)NCC(C)(C)CC(=O)Nc1c(C(C)CNC)n(C)n(-c2ccccc2)c1=O (centres unmarked) [Example 76]: 68
- COc1ccc(Cl)cc1NC(=O)CC(C)(C)CC(=O)Nc1c(C(C)C)n(C)n(-c2ccccc2)c1=O [Example 128]: 190
- CCOc1ccc(Cl)cc1C(=O)NCC(C)(C)CC(=O)Nc1c(C)n(C)n(-c2ccccn2)c1=O [Example 149]: 100
- CCOc1ncc(Br)cc1C(=O)NCC(C)(C)CC(=O)Nc1c(CCN(C)C)n(C)n(-c2ccccc2)c1=O [Example 30]: 94
- CCOc1cc(F)c(Cl)cc1C(=O)NCC(C)(C)CC(=O)Nc1c(CCN(C)CCF)n(C)n(-c2ccccc2)c1=O [Example 37]: 38
- CCOc1ccc(Cl)cc1C(=O)NCC(C)(C)CC(=O)Nc1c(C[C@H](C)N(C)C)n(C)n(-c2ccccc2)c1=O [Example 51]: 71

I = Cc1c(NC(=O)CC(C)(C)CC(=O)Nc2cc(Cl)ccc2OC(C)C)c(=O)n(-c2cccc(C(F)(F)F)c2)n1C [Example 147]
II = Cc1cc2cc(Cl)cc(C(=O)NCC(C)(C)CC(=O)Nc3c(CCCCN(C)C)n(C)n(-c4ccccc4)c3=O)c2o1 [Example 90]
III = CCOc1cc(F)c(Cl)cc1C(=O)NCC(C)(C)CC(=O)Nc1c(CCNCC(F)(F)F)n(C)n(-c2ccccc2)c1=O [Example 27]
IV = CCOc1cc(F)c(Cl)cc1C(=O)NCC(C)(C)CC(=O)Nc1c(C(C)OC)n(C)n(-c2ccccc2)c1=O (centres unmarked) [Example 122]
Request: Arrange the 4 compounds from largest to smallest IC50. Rank them, then answer with their labels in that order.
Result: IV, I, III, II
